# target: GATA4–NKX2-5 transcriptional synergy (Mus musculus, UniProt P42582+Q08369)
# Construct: expressed in transfected cells; host or cells: COS-1
# Sequence (Q08369 whole entry): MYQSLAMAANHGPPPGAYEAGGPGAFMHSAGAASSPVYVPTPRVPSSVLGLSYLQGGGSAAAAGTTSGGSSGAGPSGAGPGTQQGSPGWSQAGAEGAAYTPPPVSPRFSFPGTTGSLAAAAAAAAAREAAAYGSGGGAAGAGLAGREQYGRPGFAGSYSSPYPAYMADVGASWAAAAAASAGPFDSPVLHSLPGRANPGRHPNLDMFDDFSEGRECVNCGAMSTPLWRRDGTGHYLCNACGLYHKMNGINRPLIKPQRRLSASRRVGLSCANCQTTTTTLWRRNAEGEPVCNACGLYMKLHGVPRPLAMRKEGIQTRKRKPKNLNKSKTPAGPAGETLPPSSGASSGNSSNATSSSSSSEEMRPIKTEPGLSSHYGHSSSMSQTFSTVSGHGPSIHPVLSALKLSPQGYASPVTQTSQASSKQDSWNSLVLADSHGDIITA
# Sequence (P42582 whole entry): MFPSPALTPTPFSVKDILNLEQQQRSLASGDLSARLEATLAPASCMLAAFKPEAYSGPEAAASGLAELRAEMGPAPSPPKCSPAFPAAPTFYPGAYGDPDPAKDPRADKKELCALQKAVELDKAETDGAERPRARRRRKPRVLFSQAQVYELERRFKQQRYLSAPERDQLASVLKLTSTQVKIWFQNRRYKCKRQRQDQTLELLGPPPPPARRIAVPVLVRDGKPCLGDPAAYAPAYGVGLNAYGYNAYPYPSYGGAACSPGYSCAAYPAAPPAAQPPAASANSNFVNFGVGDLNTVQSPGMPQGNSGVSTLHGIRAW
# assay-info: GATA4–NKX2-5 transcriptional synergy luciferase reporter assay (3xNKE reporter, COS-1 cells)
# Assay type: cell-based
# test-settings: COS-1; compound 3 µM; luciferase reporter activity relative to control
observable: activity at 3 µM (%)

compound	observable	unit-spec	measured-result
CCN(CC)c1ccc(CN(C)c2c(-c3ccccc3)noc2C)cc1 [Compound 30a]	activity at 3 µM	%	103
Cc1onc(-c2ccccc2)c1COc1ccc(C(=O)N(C)CCCO)cc1 [Compound 36a]	activity at 3 µM	%	106
Cc1cc(NC(=O)c2c(C)noc2-c2ccccc2)ccc1C(C)C [SI72]	activity at 3 µM	%	102
Cc1onc(-c2ccccc2)c1COc1ccc(C(=O)O)cc1 [Compound 38]	activity at 3 µM	%	102
CCN(CC)c1ccc(NC(=O)c2c(-c3ccccc3)nnn2CCOC)cc1 [Compound 47k]	activity at 3 µM	%	73.2
CCN(CC)c1ccc(CNCc2c[nH]nc2-c2ccccc2)cc1 [SI84]	activity at 3 µM	%	91.3
CCC(=O)c1ccc(OCc2c(C)noc2-c2ccccc2)cc1 [SI47]	activity at 3 µM	%	89.3

Values compiled from paper PMC7076710.
